Test system: Candida albicans
protocolSummary: Antifungal activity against Candida albicans ATCC 90023 assessed as inhibition of fungal growth incubated for 24 hrs by CLSI based two serial dilution assay
Type: functional
Decide using MIC alone. Strictly below 30 µM: TRUE. Equal to or above 30 µM: FALSE.

## Input Record O=C1/C(=N\Nc2nccs2)c2ccccc2N1Cc1ccccc1Cl : is its MIC strictly below 30 µM?
## Output TRUE

## Input What do you get for CCCCN1C(=O)/C(=N\Nc2nc(-c3ccc(F)cc3F)cs2)c2ccccc21 ?
## Output FALSE

## Input What do you get for CCCCN1C(=O)/C(=N\Nc2nccs2)c2cccc(Cl)c21 ?
## Output TRUE

## Input What do you get for O=C1/C(=N\Nc2nccs2)c2ccccc2N1Cc1ccccc1F ?
## Output FALSE

## Input What do you get for CCCCCCN1C(=O)/C(=N\Nc2nccs2)c2ccccc21 ?
## Output FALSE

## Input What do you get for CCCCN1C(=O)/C(=N\Nc2nc(C)c(C(C)=O)s2)c2ccccc21 ?
## Output FALSE

## Input What do you get for O=C1Nc2ccccc2/C1=N/Nc1nccs1 ?
## Output FALSE

## Input What do you get for O=C1/C(=N\Nc2nccs2)c2ccccc2N1Cc1ccc(Cl)cc1Cl ?
## Output TRUE

## Input What do you get for C#CCN1C(=O)/C(=N\Nc2nccs2)c2ccccc21 ?
## Output FALSE

## Input What do you get for O=C1/C(=N\Nc2nccs2)c2ccccc2N1Cc1ccc(Cl)cc1 ?
## Output FALSE

## Input What do you get for O=C1/C(=N\Nc2nccs2)c2ccccc2N1Cc1cccc(F)c1 ?
## Output FALSE

## Input What do you get for CCCCN1C(=O)/C(=N\Nc2nccs2)c2ccc(Br)cc21 ?
## Output TRUE

## Input What do you get for O=C1/C(=N\Nc2nccs2)c2ccccc2N1Cc1cccc(Cl)c1 ?
## Output FALSE

## Input What do you get for CCN1C(=O)/C(=N\Nc2nccs2)c2ccccc21 ?
## Output FALSE

## Input What do you get for CCCCN1C(=O)/C(=N\Nc2nccs2)c2c(Cl)cccc21 ?
## Output FALSE

## Input What do you get for CCCCN1C(=O)/C(=N\Nc2nccs2)c2cc(F)ccc21 ?
## Output TRUE

## Input What do you get for CCCCN1C(=O)/C(=N\Nc2nccs2)c2ccc(Cl)cc21 ?
## Output TRUE

## Input What do you get for O=C1/C(=N\Nc2nccs2)c2ccccc2N1Cc1ccc(F)cc1 ?
## Output FALSE

## Input What do you get for CCCCCCCCCCCCN1C(=O)/C(=N\Nc2nccs2)c2ccccc21 ?
## Output FALSE

## Input What do you get for CCCCN1C(=O)/C(=N\Nc2nc(C)c(C(=O)OCC)s2)c2ccccc21 ?
## Output FALSE

## Input What do you get for CCCCN1C(=O)/C(=N\Nc2nccs2)c2ccccc21 ?
## Output TRUE

## Input What do you get for C=CCN1C(=O)/C(=N\Nc2nccs2)c2ccccc21 ?
## Output FALSE

## Input What do you get for CCCCCN1C(=O)/C(=N\Nc2nccs2)c2ccccc21 ?
## Output TRUE

## Input What do you get for CCCCN1C(=O)/C(=N\Nc2nccs2)c2cc(Br)ccc21 ?
## Output FALSE
